Measurement Name: melting point

Example cases with answers are listed next.
Compound | Reported Result
O=C(O)C=C(c1cccc(Cl)c1)c1cccc(Cl)c1 | 114 to 115 °C
COC(=O)CCCc1ccc(C(=O)Cc2ccccc2)cc1 | 54 to 54.5 °C
CCCCCCCC1CCC(CC(C#N)c2ccc(Br)cc2)CC1 (stereo unspecified) | 56 to 57 °C
CCCn1c(=O)c2c(nc(/C=C/c3ccc(OC)c4ccccc34)n2C)n(CCC)c1=O | 213 to 214 °C
CC(C)(C)c1ccc(N2CCOCC2)c(NC(=O)C(F)(F)F)c1 | 89 to 90 °C

Kindly review the next compound as well.
Fill in the blank: the reported melting point of COc1ccc(CN(C(=S)Nc2ccccc2)c2ccc(NNC(C)=O)cc2)cc1 is ____.
126 to 128 °C

###

Quick reference for melting point among some compounds

Example cases with answers are listed next.
Compound | melting point
CC(C)(C)C(=O)Oc1ccc(-c2nnn(CCCCC(=O)O)n2)cc1 | 129 to 131 °C
COc1cc2ncc(C#N)c(Nc3cc(C)c(O)c(C)c3)c2cc1OC | 234 to 236 °C
CN1CCNCCNCCNCCNCC1 | 71 to 72.5 °C
COc1cc(Cl)c2nc(Cl)nc(O)c2c1OC | 252 to 253 °C
CCCCc1nc(N)c(N=Nc2ccccc2)c(=O)[nH]1 | 266 to 270 °C

Kindly review the next compound as well.
Fill in the blank: the reported melting point of CC1Oc2ccc(CN3CCN(c4ccc(Cl)cn4)CC3)cc2NC1=O (stereo not drawn) is ____.
197 to 198 °C

###

Quick reference for melting point among some molecules

Example cases with answers are listed next.
Molecule | melting point
COc1ccc(N2CCN(c3ccc(N4C(=O)C5CCCCN5C4=O)cc3)CC2)cc1 (stereo not given) | 223 °C
CC(=O)OCC1OC(Oc2ccc(N)cc2)C(OC(C)=O)C(OC(C)=O)C1OC(C)=O (stereo not given) | 130 to 133 °C
O=S(=O)(O)CCCNC1CCCCCC1 | 341 to 343 °C

Fill in the blank: the reported melting point of CN1CC=C(c2c[nH]c3ccc(NC(=N)c4cccs4)cc23)CC1 is ____.
215 to 218 °C

Fill in the blank: the reported melting point of COc1ccc(C=CC(=O)c2cccc(OCCCCCBr)c2)cc1 is ____.
83 to 84 °C

Fill in the blank: the reported melting point of O=S(=O)(NCCc1ccc(C(O)CCCO)cc1)c1ccc(Br)cc1 (stereo not given) is ____.
107 to 108 °C

###

Quick reference for melting point among some compounds

Example cases with answers are listed next.
Compound | melting point
CCOC(=O)c1c(N)c2cccnc2n(CC(C)C)c1=O | 157 to 159 °C
Cc1nc(NC(=O)c2ccccc2S(C)(=O)=O)sc1C(=O)NCc1ccccc1 | 239 to 242 °C

Fill in the blank: the reported melting point of COc1cc2ncnc(NC3=CC(=O)C(N4CCCCC4)=CC3=O)c2cc1OC is ____.
226 to 227 °C

Fill in the blank: the reported melting point of CCCCOc1ccc(Cl)cc1C(=O)NCc1ccc(CC(=O)O)cc1 is ____.
172 °C

Fill in the blank: the reported melting point of COc1cc(-c2cnc3[nH]cc(C(=O)C(C)(C)C)c3n2)cc(OC)c1OC is ____.
240 to 241 °C

Fill in the blank: the reported melting point of CCOC(=O)c1cn([C@@H](C)COS(C)(=O)=O)c2c(F)c(-c3cc(C)nc(C)c3)c(F)cc2c1=O is ____.
180 to 183 °C

Fill in the blank: the reported melting point of CN(CC(=O)C(Cc1ccccc1)NC(=O)c1ccccc1)C(=O)N1CCCC1C(=O)O (stereo not given) is ____.
60 to 82 °C

Fill in the blank: the reported melting point of COc1nc2ccccc2nc1NC(=O)N1CCN(c2ccc(C(C)=O)cc2)CC1 is ____.
198 to 200 °C

Fill in the blank: the reported melting point of C=C(C)C(=O)OCC(COC(=O)C(=C)C)Cc1ccc(-c2ccc(OC(=O)C(=C)C)cc2)cc1 is ____.
49 °C

Fill in the blank: the reported melting point of O=C(O)C(Cl)(Cl)CCCCCCCCCCCCCCBr is ____.
61 to 63 °C

###

Quick reference for melting point among some molecules

Example cases with answers are listed next.
Molecule | Reported Result
C=CCNc1c(C(N)=O)cnc2cn[nH]c12 | 254 to 258 °C
COC(=O)C(=NO)c1cc(Cl)nc(NC=O)n1 | 110 to 112 °C
CC1CCCC=C1c1ccc(C(=O)N2Cc3cccn3Cc3ccccc32)cc1 (stereo not drawn) | 108 to 109 °C

Fill in the blank: the reported melting point of N=c1c2ccccc2ccc2ccccc12 is ____.
60 to 62 °C

Fill in the blank: the reported melting point of CC(C)C(=O)c1cn(Cc2c(F)cccc2F)c2sc(-c3ccc([N+](=O)[O-])cc3)c(CBr)c2c1=O is ____.
202 to 204 °C

Fill in the blank: the reported melting point of Nc1c(-c2ccc(-c3ccccc3F)cc2)nc2ccc(C(F)(F)F)cc2c1C(=O)O is ____.
255 to 260 °C

Fill in the blank: the reported melting point of CC(C)(C)c1cc(SCCc2nncs2)cc(C(C)(C)C)c1O is ____.
118 to 120 °C

Fill in the blank: the reported melting point of Cn1c(-c2ccc(OCC3CO3)cc2)nnc1C(F)(F)F (stereo not drawn) is ____.
104 to 106 °C

Fill in the blank: the reported melting point of C=C1CCN(c2cn(-c3cccnc3)nc2Cl)C1=O is ____.
117 to 118 °C

###

Measurement Name: melting point

Example cases with answers are listed next.
Compound | melting point
N#CCc1cccc2c(-c3ccccc3Cl)nccc12 | 113 °C
CC(C)c1cc(-c2ccccc2)nc(-c2ccc(F)cc2)c1CO | 172 to 174 °C
CCCn1nc(-c2ccc(O)c(F)c2)c2cccc(Cl)c21 | 134 to 135 °C
O=C(NCc1ccccc1O)[C@@H]1CCCN(c2cccc3c2C(=O)N(Cc2ccncc2)C3=O)C1 | 181 to 182 °C
CCOC(=O)Cc1ccc(NC(=O)C(COc2cccnc2)NS(=O)(=O)c2ccc(F)cc2)cc1 (racemic) | 150 to 152 °C

Fill in the blank: the reported melting point of CC(CCC=CC(=O)O)C1CCC2C3CCC4CC(O)CCC4(C)C3CC(O)C12C (stereo unspecified) is ____.
204 to 208 °C

###

Quick reference for melting point among some compounds

Compound | melting point
COc1ccc(C(=O)Nc2ccccc2)cc1NCc1cccc(C(F)(F)F)c1 | 167 to 171 °C

Fill in the blank: the reported melting point of CCOC(=O)C(CCC(=O)O)(CCC(=O)O)C(=O)OCC is ____.
120 °C

Fill in the blank: the reported melting point of CC(=O)NCCC(=O)NCCO is ____.
122 to 125 °C

Fill in the blank: the reported melting point of OCc1cccc(Nc2ncc3c(n2)-c2ccccc2[C@H](c2ccccc2F)C3)c1 is ____.
158 to 159 °C

###

Measurement Name: melting point

Example cases with answers are listed next.
Compound | Reported Result
CN(C)C(=O)C1(CCCN2CCCCC2)CC=CCC1c1ccccc1 (stereo not given) | 105 to 106 °C
CCOC(=O)C1=C(C)N2CCNC2=C(C(=O)OCC)C1c1ccco1 (stereo not given) | 164 °C
CC(C)(C)OC(=O)CS(=O)c1cccc(-c2nc(=O)c3ccccc3s2)n1 (stereo not given) | 159 °C
O=C(O)c1cccc2c1CCc1ccc(O)cc1S2 | 219 to 221 °C
COc1cc(Cl)cc(C)c1Nc1nc2c(Cl)ccc(C(=O)C(C)(C)C)c2n1C | 249 to 250 °C
O=C(N[C@H](Cc1cccc(OC(F)(F)C(F)F)c1)[C@@H](O)c1ccc(CO)cc1)c1cccc2c1C=CCCC2 (racemic) | 151 to 152 °C
CN1CCc2cccc3c4c(n(c23)CC1)CCC4 | 128 to 130 °C
OC1CCCc2sccc21 (stereo not given) | 58 to 60 °C

Fill in the blank: the reported melting point of Cc1cc(N)c(C(=O)Cc2nnnn2C)cc1C is ____.
162 to 165 °C

Fill in the blank: the reported melting point of C[N+]([O-])=CCC=Cc1ccccc1 is ____.
85 to 86 °C

Fill in the blank: the reported melting point of O=S(=O)(OS(=O)(=O)C1CCCCC1)C1CCCCC1 is ____.
97 to 100 °C

Fill in the blank: the reported melting point of CC1Cc2cc3c(cc2C(c2ccc([N+](=O)[O-])cc2)=NN1C(=O)NCCCl)OCO3 (stereo not given) is ____.
222 to 223 °C

Fill in the blank: the reported melting point of COc1ccc(C(=O)c2ccc(OCc3nc(-c4ccccc4)sc3C)cc2)c(OC(C)(C)C(=O)O)c1 is ____.
145 to 147 °C

Cited source: a melting point compilation (Tetko et al.; mined from patent text by program, amines drawn as free bases though some values may be those of a salt)
